Assay: Tanguay_ZF_120hpf_CRAN: Oregon State University Tanguay Lab 120 Hour Post-fertilization zebrafish Assay for Craniofacial Malformation (AID 2284397)
Activity calls are given as the source filed them. How the source made its calls: active means hit-call score of the fitted dose curve at least 0.9, where 1 is the maximum; inactive means score below 0.9.
Field 'call' accepts YES for active, NO for inactive

Examples from the recorded data:
1. NC(=O)C(F)(F)C(F)(F)C(F)(F)C(F)F	NO
2. FC(F)(F)C(F)(F)C(F)(F)CC1CO1 (stereo unspecified)	NO
3. O=C(O)CCC(F)(F)C(F)(F)C(F)(F)C(F)(F)C(F)(F)C(F)(F)C(F)(F)F	NO
4. NS(=O)(=O)C(F)(F)C(F)(F)C(F)(F)C(F)(F)C(F)(F)C(F)(F)F	NO
5. C[Si](Cl)(Cl)CCC(F)(F)C(F)(F)C(F)(F)C(F)(F)C(F)(F)C(F)(F)F	NO

Query: Called result for `O=C(O)CCC(F)(F)C(F)(F)C(F)(F)F`
Response: NO

Query: Called result for `O=S(=O)(O)CCC(F)(F)C(F)(F)C(F)(F)C(F)(F)C(F)(F)C(F)(F)C(F)(F)C(F)(F)F`
Response: YES

Query: Called result for `O=S(=O)(Cl)C(F)(F)C(F)(F)C(F)(F)C(F)(F)C(F)(F)C(F)(F)C(F)(F)C(F)(F)F`
Response: NO

Query: Called result for OCC(O)CC(F)(F)C(F)(F)C(F)(F)C(F)(F)F (stereo unspecified)
Response: NO

Query: Called result for `NC(=O)C(F)(F)C(F)(F)C(F)(F)C(F)(F)C(N)=O`
Response: NO

Query: Called result for `NC(O)(C(F)(F)F)C(F)(F)F`
Response: NO

Query: Called result for `NC(=O)C(F)(F)C(F)(F)C(F)(F)C(F)(F)C(F)(F)C(F)(F)C(F)(F)F`
Response: NO

Query: Called result for `O=C(F)C1(F)C(F)(F)C(F)(F)C(F)(F)C(F)(F)C1(F)F`
Response: NO

Query: Called result for OCC(O)CC(F)(F)C(F)(F)C(F)(F)C(F)(F)C(F)(F)C(F)(F)C(F)(F)C(F)(F)F (stereo unspecified)
Response: YES

Query: Called result for `O=C(O)C(F)(F)C(F)(F)C(F)(F)C(=O)O`
Response: NO

Query: Called result for `OC(O)C(F)(F)C(F)(F)F`
Response: NO

* * *

Read-out: Interleukin-8 (IL8), CXCL8 (gene 3576)
Experiment: BSK_SAg_IL8: BioMAP Diversity Plus: SAg Assay for Interleukin-8 (IL8) Biomarker Activity (AID 2283094)
Details: primary human HUVEC with PBMC; actives raise or lower the signal
The source made the active and inactive calls. The calls were made as follows: active = hit-call score of the fitted dose curve at least 0.9, where 1 is the maximum; inactive = score below 0.9.
Field 'call' accepts active, inactive

1) OCC(F)(F)C(F)(F)C(F)(F)C(F)(F)C(F)(F)C(F)(F)CO	inactive
2) COC(F)(C(F)F)C(F)(F)F (stereo not given)	inactive
3) C=C(C)C(=O)OCC(F)(F)C(F)(F)C(F)(F)C(F)F	inactive

Query: Called result for `CCN(CC)c1ccc(C=O)c(O)c1`
Response: inactive

Query: Called result for `NC(=O)C(F)(F)C(F)(F)C(F)(F)F`
Response: inactive

Query: Called result for `O=C=NCc1cccc(CN=C=O)c1`
Response: inactive

Query: Called result for `O=C1c2c(O)ccc(Nc3ccc(CCO)cc3)c2C(=O)c2c([N+](=O)[O-])ccc(O)c21`
Response: active

Query: Called result for `C[C@]12CC[C@H]3C(=CCc4cc(O)ccc43)[C@@H]1CCC2=O`
Response: inactive

Query: Called result for `Cc1ccc(O)c(-n2nc3ccccc3n2)c1`
Response: inactive
